Each recorded value in this set is attributed to a melting point compilation (Tetko et al.; mined from patent text by program, amines drawn as free bases though some values may be those of a salt).

The entries below are paired with their reported melting point.

>>> result_value("O=C(C=C1CCCCC1)C1Cc2c([nH]c3ccccc23)C(c2ccc3c(c2)OCO3)N1 (stereo not given)")
"116 to 118 °C"
>>> result_value("Nc1nc(N2CCC2)c2nc[nH]c2n1")
"280 °C"
>>> result_value("CS(=O)(=O)c1cc(C(=O)O)c(Cl)cc1Oc1ccccc1")
"200 °C"

Quick note, melting point for CC(C)CCCC(C)C1CCC2C3C=CC4=CC(O)CC(O)C4(C)C3CCC12C (stereo not given) landed at 120 to 121 °C

Quick note, melting point for `Cc1cc(C)c(Nc2nc(Nc3ccc(C#N)cc3)nc(Cl)c2Br)c(C)c1` landed at 220 to 221 °C

Quick note, melting point for `Cc1oc(-c2cccs2)nc1CCOc1ccc([N+](=O)[O-])cn1` landed at 126 °C

Quick note, melting point for `CC(=O)ON=C(N)c1ccc(C(=O)NCCCNC(=O)[C@@H]2CCCN2S(=O)(=O)c2ccc(Cl)c(COc3cccn4cc(C)nc34)c2Cl)cc1` landed at 105 to 107 °C
